molecular target: Human immunodeficiency virus type 1 reverse transcriptase (Human immunodeficiency virus 1, UniProt Q72547, Y181C); assay: Inhibitory activity against HIV-1 Y181C Reverse transcriptase (RT)
measurement_type: log10 IC50 (log10 of the value in nM)
Hello, just confirming the data are log10 of IC50 with units of nM.

Answered examples (8):
INSERT INTO assay_data (sample_smiles, val) VALUES
  ('CCN1c2ncccc2C(=O)N(C)c2ccc(-c3ccccc3)nc21', 3.15),
  ('CCN1c2ncccc2C(=O)N(C)c2ccc(-c3cncs3)nc21', 3.04),
  ('CCN1c2ncccc2C(=O)N(C)c2ccc(-c3ccc(N)cc3)nc21', 2.08),
  ('CCN1c2ncccc2C(=O)N(C)c2ccc(-c3ccc(N)nc3)nc21', 2.41),
  ('CCN1c2ncccc2C(=O)Nc2c(C)ccnc21', 3.26),
  ('CCN1c2ncccc2C(=O)N(C)c2ccc(-c3ccc(OC)cc3)nc21', 3.51),
  ('COc1ccc2c(n1)N(C1CC1)c1ncccc1C(=O)N2C', 3.04),
  ('CCc1cc(C)c2c(n1)N(CC)c1ncccc1C(=O)N2', 3.23);

Now look at this one.
Given the entry `CCN1c2ncccc2C(=O)N(C)c2ccc(-n3cccn3)nc21` , report its measured log10 IC50.
2.75

* * *

molecular target: Human immunodeficiency virus type 1 reverse transcriptase (Human immunodeficiency virus 1)
Cut-off 100 nM on IC50: below means 1, at or above means -1.

# example entries with known answers
INSERT INTO assay_data (sample_smiles, class_label) VALUES
  ('C#Cc1ccc2c(n1)N(CC)c1ncccc1C(=O)N2C', -1),
  ('CCN1c2ncccc2C(=O)N(C)c2ccc(N3CCCCC3)nc21', -1),
  ('CCN1c2ncccc2C(=O)N(C)c2ccc(-n3cccc3)nc21', 1);

Is 100 nM strictly greater than the molecule's reported IC50? molecule: `CCN1c2ncccc2C(=O)N(C)c2ccc(-c3ccco3)nc21`
-1

Same again, this time with `CCN1c2ncccc2C(=O)N(C)c2ccc(C)nc21`
-1

// provenance: ChEMBL document CHEMBL1128204
